Tested on: P-gp (human MDR1)
Assay: Bidirectional transport across LLC-PK1-MDR1 monolayer stably expressing human MDR1 (P-gp) (Transwell);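 also: 2 h incubation at 37 °C, receiver HBSS with 10 mM Hepes plus 1% BSA, LC-MS/MS of donor and receiver, recovery as receiver plus donor amount over initial donor amount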
Conditions: pig, LLC-PK1, pH 7.4
Outcome label depends on Papp B→A at 2 h, 2 µM relative to 20 ×10⁻⁶ cm/s: at/above gives Condition met, below gives Condition not met.

Reported Papp B→A at 2 h, 2 µM reaches at least 20 ×10⁻⁶ cm/s for "COc1cccc2c1C(=O)c1c(O)c3c(c(O)c1C2=O)C[C@@](O)(C(=O)CO)C[C@@H]3O[C@H]1C[C@H](N)[C@H](O)[C@H](C)O1" ?
Condition not met

Reported Papp B→A at 2 h, 2 µM reaches at least 20 ×10⁻⁶ cm/s for CC(C)(C)NCC(O)c1ccc(O)c(CO)c1 (stereo not drawn) ?
Condition not met

Reported Papp B→A at 2 h, 2 µM reaches at least 20 ×10⁻⁶ cm/s for "COc1ccc2cc1Oc1ccc(cc1)C[C@H]1c3cc(c(OC)cc3CCN1C)Oc1c(OC)c(OC)cc3c1[C@H](C2)N(C)CC3" ?
Condition not met

Reported Papp B→A at 2 h, 2 µM reaches at least 20 ×10⁻⁶ cm/s for Cc1cc(=O)n(-c2ccccc2)n1C [Antipyrine] ?
Condition met

Reported Papp B→A at 2 h, 2 µM reaches at least 20 ×10⁻⁶ cm/s for NC(=O)C[S+]([O-])C(c1ccccc1)c1ccccc1 (stereo not drawn) ?
Condition met

Reported Papp B→A at 2 h, 2 µM reaches at least 20 ×10⁻⁶ cm/s for "CCC1(c2cnc[nH]2)Cc2ccccc2C1" ?
Condition met

---

Test: Bidirectional transport across LLC-PK1 MOCK monolayer (Transwell);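 also: compound quantified by LC-MS/MS in donor and receiver wells, efflux ratio as B-A over A-B Papp, recovery relative to initial donor amount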
Conditions: pig, LLC-PK1, pH 7.4, Papp A-B, LLC-PK1 MOCK, 2 µM, 2 h, mean ± s, n = 3; BLQ = below 2 nM
Exercise: state measured Papp A→B at 2 h, 2 µM for each of the molecules provided.
Write down the numeric answer in ×10⁻⁶ cm/s and omit the unit.

Recall and state the measured Papp A→B at 2 h, 2 µM for "COc1ccc2[nH]cc(CCNC(C)=O)c2c1" .
22.4

Recall and state the measured Papp A→B at 2 h, 2 µM for "CN(C)CCC=C1c2ccccc2CCc2ccccc21" .
9.98

Recall and state the measured Papp A→B at 2 h, 2 µM for "C=C[C@H]1C[N@@]2CC[C@H]1C[C@@H]2[C@@H](O)c1ccnc2ccc(OC)cc12" .
23.4

Recall and state the measured Papp A→B at 2 h, 2 µM for "CCC1(c2cnc[nH]2)Cc2ccccc2C1" .
33.9

Recall and state the measured Papp A→B at 2 h, 2 µM for "CCN(CC)CCNC(=O)c1c(C)[nH]c(/C=C2\C(=O)Nc3ccc(F)cc32)c1C" .
9.31

Recall and state the measured Papp A→B at 2 h, 2 µM for "Fc1ccc([C@@H]2CCNC[C@H]2COc2ccc3c(c2)OCO3)cc1" .
7.65

Recall and state the measured Papp A→B at 2 h, 2 µM for "COc1ccc2c(c1)c(CC(=O)O)c(C)n2C(=O)c1ccc(Cl)cc1" .
16.1

Recall and state the measured Papp A→B at 2 h, 2 µM for "CN/C(=N/CCSCc1nc[nH]c1C)NC#N" .
0.69

Recall and state the measured Papp A→B at 2 h, 2 µM for COCCOC(=O)C1=C(C)NC(C)=C(C(=O)OC(C)C)C1c1cccc([N+](=O)[O-])c1 (stereo not shown) .
33.7

Recall and state the measured Papp A→B at 2 h, 2 µM for Cc1cc(=O)n(-c2ccccc2)n1C [Antipyrine] .
31.4

Recall and state the measured Papp A→B at 2 h, 2 µM for "Cc1cccc([C@H](C)c2cnc[nH]2)c1C" .
30.8

Recall and state the measured Papp A→B at 2 h, 2 µM for COc1ccc2[nH]c([S+]([O-])Cc3ncc(C)c(OC)c3C)nc2c1 (stereo not shown) .
34.2

Recall and state the measured Papp A→B at 2 h, 2 µM for COCCc1ccc(OCC(O)CNC(C)C)cc1 (stereo not shown) .
30.1

Recall and state the measured Papp A→B at 2 h, 2 µM for "CCOc1ccc(NC(C)=O)cc1" .
35.2

Recall and state the measured Papp A→B at 2 h, 2 µM for "Cn1c(=O)c2c(ncn2C)n(C)c1=O" .
34

Recall and state the measured Papp A→B at 2 h, 2 µM for "C[C@H]1O[C@@H](O[C@H]2[C@@H](O)C[C@H](O[C@H]3[C@@H](O)C[C@H](O[C@H]4CC[C@@]5(C)[C@H](CC[C@@H]6[C@@H]5C[C@@H](O)[C@]5(C)[C@@H](C7=CC(=O)OC7)CC[C@]65O)C4)O[C@@H]3C)O[C@@H]2C)C[C@H](O)[C@@H]1O" .
1.91

Recall and state the measured Papp A→B at 2 h, 2 µM for CC(C)NCC(O)COc1cccc2ccccc12 (stereo not shown) .
22.8

Recall and state the measured Papp A→B at 2 h, 2 µM for CC(NC(C)(C)C)C(=O)c1cccc(Cl)c1 (stereo not shown) .
27.3

Recall and state the measured Papp A→B at 2 h, 2 µM for "CC[C@]1(O)C[C@@H]2CN(CCc3c([nH]c4ccccc34)[C@@](C(=O)OC)(c3cc4c(cc3OC)N(C)[C@H]3[C@@](O)(C(=O)OC)[C@H](OC(C)=O)[C@]5(CC)C=CCN6CC[C@]43[C@@H]65)C2)C1" .
4.33
